Catalogue of log10(IC50) readings, one per entry.
# subject of test: human CRTH2 (Homo sapiens)
# Construct: expressed in transfected cells; host or cells: CHO-K1
# Sequence (Q9Y5Y4 whole entry): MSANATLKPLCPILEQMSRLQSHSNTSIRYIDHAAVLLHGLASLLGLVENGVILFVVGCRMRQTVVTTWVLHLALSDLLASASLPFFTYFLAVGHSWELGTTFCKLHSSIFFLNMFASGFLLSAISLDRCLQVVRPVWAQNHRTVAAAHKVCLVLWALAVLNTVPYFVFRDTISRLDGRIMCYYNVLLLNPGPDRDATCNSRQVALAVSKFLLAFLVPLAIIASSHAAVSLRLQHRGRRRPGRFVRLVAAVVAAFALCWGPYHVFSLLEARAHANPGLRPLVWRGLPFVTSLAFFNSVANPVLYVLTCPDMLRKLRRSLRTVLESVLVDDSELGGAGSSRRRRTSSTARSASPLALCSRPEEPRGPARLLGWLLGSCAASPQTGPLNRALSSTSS
# assay notes: Human CRTH2 Receptor Binding Assay (whole cell, [3H]ramatroban competition)
# measurement parameters: CHO-K1 cells expressing human CRTH2 and G-alpha16; 20 nM [3H]ramatroban; 1 hour, room temperature
Reminder: these figures are log10 of reported IC50, in nM before transformation.

CCS(=O)(=O)c1ccc(Oc2c(C)c(CC(=O)O)cc3ccc(F)cc23)cc1F : 0.57
CCCCS(=O)(=O)c1ccc(Oc2c(C)c(CC(=O)O)cc3ccc(F)cc23)cc1 : 0.32
CS(=O)(=O)c1ccc(Oc2cc(CC(=O)O)cc3ccc(F)cc23)nc1 : 0.57
Cc1c(CC(=O)O)cc2ccc(F)cc2c1Nc1ccc(S(C)(=O)=O)cc1 : 0.41
Cc1cc(S(C)(=O)=O)ccc1Oc1c(C)c(CC(=O)O)cc2ccc(Cl)cc12 : 0.43

Request: Identify log10(IC50) associated with the compound CCS(=O)(=O)c1ccc(Oc2cc(CC(=O)O)cc3ccc(C#N)cc23)nc1
Result: 0.52

Request: Let me know recorded log10(IC50) for Cc1c(CC(=O)O)cc2ccc(F)cc2c1Oc1ccc(S(=O)(=O)c2ccc(F)cc2)cc1 , thanks.
Result: 0.46

Request: Return the recorded log10(IC50) value; entry: CCS(=O)(=O)c1ccc(Oc2c(C)c(CCC(=O)O)cc3ccc(F)cc23)cc1
Result: 2.11
